Molecular target: Proteasome Macropain subunit PRE2 (Saccharomyces cerevisiae S288c, UniProt P30656)
Sequence (P30656 whole entry): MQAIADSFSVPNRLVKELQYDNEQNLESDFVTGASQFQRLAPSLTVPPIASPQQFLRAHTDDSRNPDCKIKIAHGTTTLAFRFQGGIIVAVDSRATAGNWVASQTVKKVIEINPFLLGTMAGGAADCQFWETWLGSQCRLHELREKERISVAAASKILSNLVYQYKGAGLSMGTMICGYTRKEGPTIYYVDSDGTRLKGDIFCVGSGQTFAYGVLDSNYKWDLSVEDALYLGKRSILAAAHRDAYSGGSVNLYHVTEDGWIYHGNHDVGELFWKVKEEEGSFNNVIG
Experiment: Inhibition of chymotrypsin like activity of yeast 20S proteasome
measurement-label: Ki (µM)
Give just the numeric value; µM need not be written.

# substance, unit-descriptor, Ki
data = [
    ("H-TITYKF-OH", "µM", 151),
    ("H-TITYDL-OH", "µM", 619),
    ("H-TVTYKL-OH", "µM", 545),
]

Here's the next entry for you.
Report Ki for H-TVTFKF-OH tested on Proteasome Macropain subunit PRE2 (Saccharomyces cerevisiae S288c, UniProt P30656). 139

* * *

target: Proteasome Macropain subunit (Saccharomyces cerevisiae S288c, UniProt P22141); assay: Inhibition of trypsin like activity of yeast 20S proteasome
Sequence (P22141 whole entry): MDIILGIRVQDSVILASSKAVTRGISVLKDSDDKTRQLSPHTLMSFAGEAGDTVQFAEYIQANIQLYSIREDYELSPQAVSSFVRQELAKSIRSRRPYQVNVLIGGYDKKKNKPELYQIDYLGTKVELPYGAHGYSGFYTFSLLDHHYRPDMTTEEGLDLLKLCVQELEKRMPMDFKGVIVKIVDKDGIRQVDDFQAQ
Residues, ends and D or L forms follow the SMILES beside them.
measurement-label: Ki

# compound, Ki
records = [
    ("CCCCCCCCCCCC(=O)N[C@H](C(=O)N[C@H](C(=O)N[C@H](C(=O)N[C@@H](Cc1ccccc1)C(=O)N[C@@H](CC(=O)O)C(=O)N[C@@H](Cc1ccc(O)cc1)C(=O)O)[C@@H](C)O)[C@@H](C)CC)[C@@H](C)O (HELM PEPTIDE1{[CCCCCCCCCCCC(=O)[*:2]].T.I.T.F.D.Y}$$$$V2.0)", "> 80 µM"),
    ("CCCCCCCCCCCCCCCC(=O)N[C@@H](Cc1ccc(O)cc1)C(=O)N[C@@H](CC(=O)O)C(=O)N[C@@H](CC(C)C)C(=O)O (HELM PEPTIDE1{[CCCCCCCCCCCCCCCC(=O)[*:2]].Y.D.L}$$$$V2.0)", "> 80 µM"),
    ("CCCCCCCCCCCC(=O)N[C@H](C(=O)N[C@H](C(=O)N[C@H](C(=O)N[C@@H](Cc1ccc(O)cc1)C(=O)N[C@@H](CCCCN)C(=O)N[C@@H](Cc1ccccc1)C(=O)O)[C@@H](C)O)C(C)C)[C@@H](C)O (HELM PEPTIDE1{[CCCCCCCCCCCC(=O)[*:2]].T.V.T.Y.K.F}$$$$V2.0)", "68 µM"),
]

Here's the next entry for you.
Recorded Ki for CCCCCCCCCCCCCCCC(=O)N[C@@H](Cc1ccccc1)C(=O)N[C@@H](CCCCN)C(=O)N[C@@H](Cc1ccccc1)C(=O)O (HELM PEPTIDE1{[CCCCCCCCCCCCCCCC(=O)[*:2]].F.K.F}$$$$V2.0) , please? > 80 µM

* * *

molecular target: Proteasome Macropain subunit PRE2 (Saccharomyces cerevisiae S288c); assay: Inhibition of chymotrypsin like activity of yeast 20S proteasome
Residues, ends and D or L forms follow the SMILES beside them.
Reported Ki values are given for each entry in this list.
Give just the numeric value; µM need not be written.

Here is how some compounds turned out for Ki.
# compound, value-measured
rows = [
    ("CCCCCCCCCCCCCCCC(=O)N[C@@H](Cc1ccc(O)cc1)C(=O)N[C@@H](CCCCN)C(=O)N[C@@H](Cc1ccccc1)C(=O)O (HELM PEPTIDE1{[CCCCCCCCCCCCCCCC(=O)[*:2]].Y.K.F}$$$$V2.0)", 81),
    ("CCCCCCCCCCCCCCCC(=O)N[C@H](C(=O)N[C@H](C(=O)N[C@H](C(=O)N[C@@H](Cc1ccccc1)C(=O)N[C@@H](CC(=O)O)C(=O)N[C@@H](Cc1ccc(O)cc1)C(=O)O)[C@@H](C)O)[C@@H](C)CC)[C@@H](C)O (HELM PEPTIDE1{[CCCCCCCCCCCCCCCC(=O)[*:2]].T.I.T.F.D.Y}$$$$V2.0)", 80),
]

Here's the next entry for you.
Recorded Ki for CCCCCCCCCC(=O)N[C@H](C(=O)N[C@H](C(=O)N[C@H](C(=O)N[C@@H](Cc1ccccc1)C(=O)N[C@@H](CC(=O)O)C(=O)N[C@@H](Cc1ccc(O)cc1)C(=O)O)[C@@H](C)O)[C@@H](C)CC)[C@@H](C)O (HELM PEPTIDE1{[CCCCCCCCCC(=O)[*:2]].T.I.T.F.D.Y}$$$$V2.0) , please? 37
